Where do the numbers come from? From PubChem BioAssay (NCI).

Tested on: CCRF-CEM leukemia
experimentNotes: NCI-60 one-dose screen, 48 h (100 = growth as untreated, 0 = no growth, -100 = all killed)
conditionDetails: 10 µM unless noted
About 83,000 compounds went through this panel and 20% of them were active in at least one assay; those are over-represented in the sample as a whole.
So basically: is growth under 50%? Then criterion met. Not under? Then criterion not met.

1) c1ccc(-c2cn3c(-c4c[nH]c5ccccc45)csc3n2)cc1 ... criterion not met

Req: Find out if reported growth for COc1ccccc1/C=C1\Oc2ccc(O)c(O)c2C1=O is less than 50%
Resp: criterion not met

Req: Field entry: CCOC(=O)c1c(NC(=O)c2cccc(C(F)(F)F)c2)sc2c3c(ccc12)OCN(C)C3
Resp: criterion met

Req: Field entry: Cc1ccc2c(n1)C(=O)C(Cl)=C(Nc1ccc(C)c(C)c1)C2=O
Resp: criterion met

* * *

System: MCF7 breast
experimentNotes: NCI-60 one-dose screen, 48 h (100 = growth as untreated, 0 = no growth, -100 = all killed)
conditionDetails: 10 µM unless noted
The panel holds about 83,000 compounds, 20% with a hit somewhere; the sample as a whole holds those more often.
valueKind: growth (%)
Kindly answer with a numeric value in %, unit omitted.

1. N#C/C(=C\c1ccc(-c2ccc(Cl)cc2)o1)C(=O)Nc1ncc(Cc2ccc(Br)cc2)s1 ... 30.5
2. C#Cc1nc(/C=C/C(=O)NO)cs1 ... 62.6
3. N#C/C(=C\c1cccc2c1OCO2)C(=O)Nc1sc2c(c1C#N)CCCC2 ... 97.6
4. O=C(Nc1ccccc1)Nc1nc2ccc([N+](=O)[O-])cc2[nH]1 ... 53.7

Req: Sample CNC(=O)c1cc(N2CCc3cc(NC(=O)Nc4ccc(N5CCOCC5)c(C(F)(F)F)c4)ccc32)ccn1 — what was its growth?
Resp: 12.4

Req: Field entry: O=C(/C=C/c1cccc(F)c1)c1cccc(OCCCCOc2cccc(C(=O)/C=C/c3cccc(F)c3)c2)c1
Resp: 54.6

Req: Field entry: O=C(CCCCCCNC(=O)C(O)(O)C(F)(F)F)Nc1ncc(-c2ccccc2)s1
Resp: 11.7

Req: Field entry: CC(C)=CCC[C@](C)(O)[C@H]1CC[C@]2(C)[C@@H]1CC[C@@H]1[C@@]3(C)CC[C@H](N)C(C)(C)[C@@H]3CC[C@]12C
Resp: 3.07

Req: Field entry: Nc1cc(C(=O)N/N=C\c2ccc(OC(F)F)c(OC3CCCC3)c2)nn1CC(O)c1ccccc1 (stereo unspecified)
Resp: 89

Req: Field entry: Cc1csc(/N=C(N)/N=C(\N)c2cccs2)n1
Resp: 81.2

Req: Field entry: CCCNNC(=O)c1ccc(-c2ccc(NC(=O)CCCCCCC(=O)N[C@H](C(=O)N3C[C@H](O)C[C@H]3C(=O)N[C@@H](C)c3ccc(-c4scnc4C)cc3)C(C)(C)C)cc2)cc1
Resp: 12

* * *

Test system: MOLT-4 leukemia
experimentNotes: NCI-60 one-dose screen, 48 h (100 = growth as untreated, 0 = no growth, -100 = all killed)
conditionDetails: 10 µM unless noted
This is part of a sample that, as a whole, favours compounds with a hit. Of some 83,000 tested, about 20% had one in any assay.
molecules and their reported growth
Kindly answer with a numeric value in %, unit omitted.

1) COc1ccc2[nH]cc(-c3nn4cc(-c5ccncc5)nc4s3)c2c1 ... 50.4

Req: Sample O=S(=O)(NCCCNc1nccc(-c2[nH]c(-c3ccccc3)nc2-c2ccc(F)c(O)c2)n1)c1ccccc1 — what was its growth?
Resp: 51.3

Req: Field entry: NC(=O)c1c(NC(=O)c2ccc(C(F)(F)F)cc2)sc2c1CCC(=O)C2
Resp: 4.59

Req: Field entry: O=C1[C@H]2Cc3c([nH]c4ccccc34)[C@H](c3ccc(Br)cc3)N2C(=O)CN1C1CCN(CC2CCCCC2)CC1
Resp: 38.5

Req: Field entry: O=C1/C(=C/C=C/c2ccco2)SC(=S)N1Cc1ccccc1
Resp: 96.4

Req: Field entry: C#Cc1nc(/C=C\CCCCCCC(=O)NO)cs1
Resp: -24.6

Req: Field entry: COc1cc(C(C)=C(c2ccc(OCCN(C)C)cc2)c2ccc(OCCN(C)C)cc2)ccc1F
Resp: 108

Req: Field entry: CCCCCCNC(=O)Oc1ccc(/C(=C(/C)c2ccc(OC)cc2)c2ccc(OCCN3CCCCCC3)cc2)cc1
Resp: 9.66

Req: Field entry: C#C[C@]1(O)CC[C@H]2[C@@H]3CC=C4c5sc(Nc6cc(C)cc(C)c6)nc5CC[C@]4(C)[C@H]3CC[C@@]21C
Resp: 0.923
